- measured_on: human adenosine A3 receptor (Homo sapiens, UniProt P0DMS8)
- Construct: membrane fraction
- Sequence (P0DMS8 whole entry): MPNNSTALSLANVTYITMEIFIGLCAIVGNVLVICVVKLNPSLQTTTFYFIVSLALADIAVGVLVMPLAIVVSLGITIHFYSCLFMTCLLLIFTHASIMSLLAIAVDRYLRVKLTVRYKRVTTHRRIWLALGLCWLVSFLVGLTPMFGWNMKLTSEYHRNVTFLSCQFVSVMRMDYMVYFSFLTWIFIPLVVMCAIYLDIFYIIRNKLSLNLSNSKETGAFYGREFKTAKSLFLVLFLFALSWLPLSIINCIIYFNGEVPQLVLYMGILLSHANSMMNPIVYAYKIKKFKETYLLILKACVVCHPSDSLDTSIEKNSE
- experiment: Adenosine A3 receptor binding test
- conditions: membrane fraction of A3AR/CHO strain, [3H]-NECA 10 nM, room temperature 1 hour; read-out: IC50 (concentration necessary for decreasing an amount of binding of [3H]-NECA to the membrane fraction by 50%)
endpoint: pIC50
Friendly reminder that pIC50 comes from taking -log10 of the concentration in mol/L.

Give its pIC50 value. Item: Cc1cc(C)cc(-c2nc(N)sc2-c2ccnc(OCc3ccccc3)c2)c1
7.94

----------
endpoint: melting point

A selection of reference data follows.
Cc1cccc(-c2nc(N)sc2-c2ccnc(NCc3ccc(Cl)cc3)c2)c1 [Example Compound 23-4]; 182 to 183 °C
Cc1cccc(-c2nc(N)sc2-c2ccnc(NCc3cccc(Cl)c3)c2)c1 [Example Compound 23-5]; 180 to 181 °C
Cc1cccc(-c2nc(N)sc2-c2ccnc(N[C@H](C)c3ccccc3)c2)c1 [Example Compound 23-6]; 94 to 98 °C
CSc1ccc(-c2nc(-c3cccc(C)c3)c(-c3ccnc(NC(=O)c4ccccc4)c3)s2)cc1 [Example Compound 16-15]; 180 to 182 °C
Cc1cccc(-c2nc(-c3ccc(S(C)(=O)=O)cc3)sc2-c2ccnc(NC(=O)CCc3ccccc3)c2)c1 [Example Compound 21-2]; 236 to 237 °C

Give its melting point value. Item: COc1ccc(-c2nc(C)sc2-c2ccnc(NCc3ccccc3)c2)cc1 [Example Compound 19-1]
132 to 133 °C

Could you do the same for Cc1cccc(-c2nc(-c3ccccc3Cl)sc2-c2ccnc(NCCCc3ccccc3)c2)c1 [Example Compound 19-16] , please?
101 to 102 °C

Could you do the same for Cc1cccc(-c2nc(-c3ccc(S(C)(=O)=O)cc3)sc2-c2ccnc(NCc3cccs3)c2)c1 [Example Compound 25-5] , please?
107 to 109 °C

----------
endpoint: melting point

A selection of reference data follows.
COc1ccc(CNc2cc(-c3sc(N)nc3-c3cccc(C)c3)ccn2)cc1; 183 to 184 °C
Cc1cccc(-c2nc(-c3ccc(F)cc3)sc2-c2ccnc(NC(=O)CCc3ccccc3)c2)c1; 169 to 171 °C
Cc1cccc(-c2nc(-c3ccc(S(C)(=O)=O)cc3)sc2-c2ccnc(NCc3ccc(F)cc3)c2)c1; 155 to 158 °C
Cc1cccc(-c2nc(-c3ccc(S(C)(=O)=O)cc3)sc2-c2ccnc(NCCCc3ccccc3)c2)c1; 167 to 168 °C
CCCCc1nc(-c2cccc(C)c2)c(-c2ccnc(NC(=O)Cc3ccccc3)c2)s1; 92 to 93 °C
Cc1cccc(-c2nc(-c3ccc(F)cc3)sc2-c2ccnc(NCc3ccccc3)c2)c1; 143 to 146 °C
Cc1cccc(-c2nc(-c3ccccc3Cl)sc2-c2ccnc(NC(=O)CCc3ccccc3)c2)c1; 156 to 158 °C
CSc1ccc(-c2nc(-c3cccc(C)c3)c(-c3ccnc(NC(=O)CCc4ccccc4)c3)s2)cc1; 174 to 175 °C

Give its melting point value. Item: Cc1cccc(-c2nc(-c3ccc(F)cc3)sc2-c2ccnc(NC(=O)c3ccccc3)c2)c1
126 to 128 °C

Could you do the same for CCCc1nc(-c2cccc(C)c2)c(-c2ccnc(NC(=O)CCc3ccccc3)c2)s1 , please?
103 to 104 °C

Could you do the same for COc1ccc(-c2nc(C)sc2-c2ccnc(NC(=O)Cc3ccccc3)c2)cc1 , please?
118 to 120 °C

Could you do the same for CSc1ccc(-c2nc(-c3cccc(C)c3)c(-c3ccnc(NCCc4ccccc4)c3)s2)cc1 , please?
137 to 139 °C

----------
Readings of melting point for the listed compounds

CSc1ccc(-c2nc(-c3cccc(C)c3)c(-c3ccnc(NCc4ccccc4)c3)s2)cc1 [Example Compound 19-17]; 134 to 136 °C
CSc1ccc(-c2nc(-c3cccc(C)c3)c(-c3ccnc(NCc4ccc5ccccc5c4)c3)s2)cc1 [Example Compound 19-20]; 144 to 145 °C
CCc1nc(-c2cccc(C)c2)c(-c2ccnc(NC(=O)CCc3ccc(F)cc3)c2)s1 [Example Compound 16-4]; 116 to 117 °C

Give its melting point value. Item: Cc1cccc(-c2nc(-c3ccc(F)cc3)sc2-c2ccnc(NCCc3ccccc3)c2)c1 [Example Compound 19-12]
97 to 98 °C

Could you do the same for Cc1cccc(-c2nc(-c3ccc(S(C)(=O)=O)cc3)sc2-c2ccnc(N(C)CCc3ccccc3)c2)c1 [Example Compound 25-4] , please?
116 to 117 °C

Could you do the same for CSc1ccc(-c2nc(-c3cccc(C)c3)c(-c3ccnc(NC(=O)c4ccc5ccccc5c4)c3)s2)cc1 [Example Compound 16-18] , please?
184 to 186 °C

Could you do the same for COc1ccccc1CNc1cc(-c2sc(N)nc2-c2cccc(C)c2)ccn1 [Example Compound 23-3] , please?
158 to 159 °C

Could you do the same for CSc1ccc(-c2nc(-c3cccc(C)c3)c(-c3ccnc(NC(=O)c4cccs4)c3)s2)cc1 [Example Compound 16-17] , please?
145 to 147 °C

Could you do the same for Cc1cccc(-c2nc(-c3ccc(S(C)(=O)=O)cc3)sc2-c2ccnc(NC(=O)c3ccc4ccccc4c3)c2)c1 [Example Compound 21-4] , please?
231 to 233 °C

----------
endpoint: melting point

Give its melting point value. Item: CC(=O)Nc1nc(-c2cc(C)cc(C)c2)c(-c2ccnc(NCc3ccccc3)c2)s1
217 to 219 °C

Could you do the same for Cc1cccc(-c2nc(-c3ccc(S(C)(=O)=O)cc3)sc2-c2ccnc(NC(=O)c3cccs3)c2)c1 , please?
199 to 201 °C

Could you do the same for Cc1cccc(-c2nc(N)sc2-c2ccnc(N(C)Cc3ccccc3)c2)c1 , please?
138 to 140 °C

----------
endpoint: melting point

CCCCc1nc(-c2cccc(C)c2)c(-c2ccnc(NC(=O)CCc3ccccc3)c2)s1; 77 to 78 °C

Shift focus to the following entry.
Give its melting point value. Item: CCc1nc(-c2cccc(C)c2)c(-c2ccnc(NC(=O)CCc3ccc(OC)cc3)c2)s1
137 to 138 °C

----------
Readings of melting point for the listed compounds

A selection of reference data follows.
COc1cccc(CNc2cc(-c3sc(N)nc3-c3cccc(C)c3)ccn2)c1; 152 to 154 °C
CSc1ccc(-c2nc(-c3cccc(C)c3)c(-c3ccnc(NCCCc4ccccc4)c3)s2)cc1; 106 to 107 °C
Cc1cccc(-c2nc(-c3ccc(S(C)(=O)=O)cc3)sc2-c2ccnc(NCc3ccc4ccccc4c3)c2)c1; 167 to 168 °C
COc1cccc(-c2nc(N)sc2-c2ccnc(NCc3ccccc3)c2)c1; 217 to 218 °C
CCc1nc(-c2cccc(C)c2)c(-c2ccnc(NC(=O)CCCCc3ccccc3)c2)s1; 86 to 87 °C

Give its melting point value. Item: Cc1cccc(-c2nc(N)sc2-c2ccnc(N[C@@H](C)c3ccccc3)c2)c1
93 to 96 °C

Could you do the same for Cc1cccc(-c2nc(-c3ccccc3Cl)sc2-c2ccnc(NC(=O)c3ccccc3)c2)c1 , please?
138 to 140 °C

Could you do the same for CNc1nc(-c2ccc(OC)cc2)c(-c2ccnc(NC(=O)c3ccccc3)c2)s1 , please?
237 to 241 °C

Could you do the same for Cc1cccc(-c2nc(-c3ccc(S(C)(=O)=O)cc3)sc2-c2ccnc(N(C)Cc3ccccc3)c2)c1 , please?
165 to 166 °C

Could you do the same for Cc1cccc(-c2nc(N)sc2-c2ccnc(NC(=O)c3ccccc3)c2)c1 , please?
216 to 217 °C
